- systemTested: recombinant N-terminal GST-tagged human Rho kinase 2 (ROCK2, amino acids 1-552) (Homo sapiens, UniProt O75116)
- Construct: ROCK2, amino acids 1-552; purchased Invitrogen Inc. PV3759
- Sequence (O75116 1-552): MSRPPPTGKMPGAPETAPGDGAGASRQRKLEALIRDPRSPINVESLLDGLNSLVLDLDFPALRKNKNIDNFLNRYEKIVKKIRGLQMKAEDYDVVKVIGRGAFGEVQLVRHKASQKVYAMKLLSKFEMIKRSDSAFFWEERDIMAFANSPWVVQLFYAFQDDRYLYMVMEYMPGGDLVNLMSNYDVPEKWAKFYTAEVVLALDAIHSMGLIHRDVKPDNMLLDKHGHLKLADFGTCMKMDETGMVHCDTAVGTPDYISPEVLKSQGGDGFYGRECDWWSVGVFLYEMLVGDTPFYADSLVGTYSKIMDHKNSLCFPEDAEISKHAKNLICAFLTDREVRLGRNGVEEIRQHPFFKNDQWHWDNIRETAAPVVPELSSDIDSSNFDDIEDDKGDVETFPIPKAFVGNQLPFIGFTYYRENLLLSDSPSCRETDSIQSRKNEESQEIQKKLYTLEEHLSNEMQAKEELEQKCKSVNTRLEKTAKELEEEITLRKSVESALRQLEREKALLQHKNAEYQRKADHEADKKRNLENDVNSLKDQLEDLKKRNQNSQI
- assayInfo: In vitro Rho kinase assay (luciferase-based ATP consumption), ROCK2
- Type: biochemical
- conditionSet: recombinant GST-tagged human ROCK2, luciferase-based ATP consumption; read-out: ROCK2 IC50
pIC50: −log10 of the molar value.
attributeMeasured: pIC50

Noted for Cc1c(-c2ccnc(N)n2)sc2ccc(C(=O)NCCN3CCCC3)cc12 : its pIC50 reads > 5.30

Noted for Cc1ccc(F)cc1C(=O)NCc1ccc2sc(-c3ccnc(N)n3)c(C)c2c1 : its pIC50 reads > 5.30

Noted for Cc1c(-c2ccnc(N)n2)sc2ccc(CNC(=O)c3ccc(Cl)nc3)cc12 : its pIC50 reads > 5.30

Noted for Cc1c(-c2ccnc(N)n2)sc2ccc(CNC(=O)c3cccnc3)cc12 : its pIC50 reads > 5.30

Noted for Cc1c(-c2ccnc(N)n2)sc2ccc(Nc3ccnc(O)n3)cc12 : its pIC50 reads > 5.30

Noted for CCCCOc1ccc(C(=O)NCc2ccc3sc(-c4ccnc(N)n4)c(C)c3c2)cc1 : its pIC50 reads < 5.30

====

- systemTested: recombinant N-terminal GST-tagged human Rho kinase 1 (ROCK1, amino acids 1-535) (Homo sapiens)
- Construct: ROCK1, amino acids 1-535; purchased Invitrogen Inc. PV-3691
- Sequence (Q13464 1-535): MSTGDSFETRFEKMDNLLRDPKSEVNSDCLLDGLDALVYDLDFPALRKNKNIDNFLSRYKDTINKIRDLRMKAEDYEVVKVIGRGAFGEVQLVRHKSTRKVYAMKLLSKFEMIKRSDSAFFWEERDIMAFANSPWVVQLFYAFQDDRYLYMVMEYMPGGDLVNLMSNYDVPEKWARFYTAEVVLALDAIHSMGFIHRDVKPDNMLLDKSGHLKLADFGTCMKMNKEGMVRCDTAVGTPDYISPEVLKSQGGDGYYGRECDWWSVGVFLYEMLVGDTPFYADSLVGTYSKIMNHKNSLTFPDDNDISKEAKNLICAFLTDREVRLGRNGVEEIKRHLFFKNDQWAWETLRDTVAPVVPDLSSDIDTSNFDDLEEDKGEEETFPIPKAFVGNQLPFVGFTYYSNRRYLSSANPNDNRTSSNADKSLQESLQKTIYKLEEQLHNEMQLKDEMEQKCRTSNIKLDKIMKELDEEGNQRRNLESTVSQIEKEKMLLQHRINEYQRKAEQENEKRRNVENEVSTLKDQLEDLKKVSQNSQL
- assayInfo: In vitro Rho kinase assay (luciferase-based ATP consumption), ROCK1
- Assay type: biochemical
- conditionSet: recombinant GST-tagged human ROCK1, luciferase-based ATP consumption; read-out: ROCK1 IC50
- Description: In Vitro Rho Kinase Assay Rho kinase biochemical assays described below depend on firefly luciferase-based, indirect measurement of total ATP consumption by the kinase following incubation with substrate and ATP. […] After an additional 10 minute incubation at room temperature (about 22° C.), luminescence activity is measured on a Molecular Devices Analyst multi-mode plate reader or other suitable plate reader. […] Negative control activity is measured with DMSO lacking any test compound. […]
pIC50: −log10 of the molar value.
Measured pIC50, listed per entry.

Please review the following examples before continuing.
>>> valueobserved("Cc1c(-c2ccnc(N)n2)sc2ccc(CNC(=O)C3CCCN3C(=O)OCc3ccccc3)cc12 (centres unmarked)")
"> 5.30"
>>> valueobserved("Cc1c(-c2ccnc(N)n2)sc2ccc(Nc3cccc(NC(=O)c4ccc(C(=O)O)cc4)c3)cc12")
"> 5.30"
>>> valueobserved("COc1ccc(Cc2ccc3sc(-c4ccnc(N)n4)c(C)c3c2)cc1")
"< 5.30"

Noted for COc1cc(C(=O)Nc2ccc3sc(-c4ccnc(N)n4)c(C)c3c2)cc(OC)c1OC : its pIC50 reads < 5.30

Noted for Cc1c(-c2ccnc(N)n2)sc2ccc(CNC(=O)c3csc4ccccc34)cc12 : its pIC50 reads < 5.30

====

- systemTested: recombinant N-terminal GST-tagged human Rho kinase 2 (ROCK2, amino acids 1-552) (Homo sapiens)
- Construct: ROCK2, amino acids 1-552; purchased Invitrogen Inc. PV3759
- assayInfo: In vitro Rho kinase assay (luciferase-based ATP consumption), ROCK2
- Format: biochemical
- conditionSet: recombinant GST-tagged human ROCK2, luciferase-based ATP consumption; read-out: ROCK2 IC50
pIC50: −log10 of the molar value.
Measured pIC50, listed per entry.

Please review the following examples before continuing.
>>> valueobserved("Nc1nccc(-c2sc3ccccc3c2Br)n1")
"> 5.30"
>>> valueobserved("COc1ccc(CCN(C)C(=O)c2ccc3sc(-c4ccnc(N)n4)c(C)c3c2)cc1OC")
"< 5.30"
>>> valueobserved("Cc1c(-c2ccnc(N)n2)sc2ccc(CN)cc12")
"> 5.30"
>>> valueobserved("Cc1c(-c2ccnc(N)n2)sc2ccc(C(=O)N3CCN(c4ccccc4)CC3)cc12")
"> 5.30"
>>> valueobserved("Cc1c(C(=O)NCc2ccc3sc(-c4ccnc(N)n4)c(C)c3c2)cccc1[N+](=O)[O-]")
"> 5.30"
>>> valueobserved("CCOC(=O)N1CCN(C(=O)c2ccc3sc(-c4ccnc(N)n4)c(C)c3c2)CC1")
"< 5.30"

Noted for Cc1c(-c2ccnc(N)n2)sc2ccc(CNC(=O)c3ccccc3C(F)(F)F)cc12 : its pIC50 reads > 5.30

Noted for Cc1c(-c2ccnc(N)n2)sc2ccc(CNC(=O)c3cc([N+](=O)[O-])ccc3O)cc12 : its pIC50 reads > 5.30

Noted for CCc1ccc(C(=O)NCc2ccc3sc(-c4ccnc(N)n4)c(C)c3c2)cc1 : its pIC50 reads < 5.30

Values were extracted from patent US20080021026A1.
